Reported GI50 values are given for each entry in this list.
# Tested on: MCF7
# assayNotes: Cytotoxicity against human MCF-7 cells assessed as growth inhibition measured after 72 hrs by SRB assay
# Assay type: functional
Give the value, in units of nM, as a plain number.

compound	readout	numericReadout
CC(=O)N1CCN(CC(O)COc2ccc(/C=C(\C#N)c3ccc(Cl)c(Cl)c3)cc2)CC1 (racemic)	GI50	5300
N#C/C(=C\c1ccc(OCC(O)CN2CCCCC2)cc1)c1ccc(Cl)c(Cl)c1 (racemic)	GI50	2500
N#C/C(=C\c1ccc(OCC(O)CN2CCCC2)cc1)c1ccc(Cl)c(Cl)c1 (racemic)	GI50	2800
CC1CCCCN1CC(O)COc1ccc(/C=C(\C#N)c2ccc(Cl)c(Cl)c2)cc1 (racemic)	GI50	2100
N#C/C(=C\c1ccc(OCC(O)CNC2CCCCC2)cc1)c1ccc(Cl)c(Cl)c1 (racemic)	GI50	2700
N#C/C(=C\c1ccc(OCC(O)CN2CCC(c3ccccc3)CC2)cc1)c1ccc(Cl)c(Cl)c1 (racemic)	GI50	2500

Recorded GI50 of N#C/C(=C\c1ccc(OCC(O)CN2CCN(c3ccccc3F)CC2)cc1)c1ccc(Cl)c(Cl)c1 (racemic) , please.
11000

Recorded GI50 of N#C/C(=C\c1ccc(OCC(O)CN2CCN(c3ccccc3)CC2)cc1)c1ccc(Cl)c(Cl)c1 (racemic) , please.
4100
